system: barnyardgrass (Echinochloa crus-galli L.); assay: Test Example 1: foliar treatment, growth inhibition rate, barnyardgrass; format: in vivo; details: 31 g/ha active ingredient, visually observed 17th to 23rd day after application
property label: Growth inhibition rate (%) Barnyardgrass
Reply numerically in %, unit not repeated.

Quote Growth inhibition rate (%) Barnyardgrass reported for CCSC(=O)Oc1c(C(=O)c2ccc(S(C)(=O)=O)c(OCC(C)OC)c2C)cnn1C (centres unmarked) [compound 189] please.
95

Quote Growth inhibition rate (%) Barnyardgrass reported for CCOCCOc1c(S(C)(=O)=O)ccc(C(=O)c2cnn(C)c2OC(=O)SCC)c1C [compound 77] please.
98

Quote Growth inhibition rate (%) Barnyardgrass reported for CCSC(=O)Oc1c(C(=O)c2ccc(S(C)(=O)=O)c(OC(C)C)c2C)cnn1C [compound 37] please.
95

Quote Growth inhibition rate (%) Barnyardgrass reported for CSC(=O)Oc1c(C(=O)c2ccc(S(C)(=O)=O)c(C3=NOCC3)c2C)cnn1C [compound 40] please.
95

Quote Growth inhibition rate (%) Barnyardgrass reported for CCn1ncc(C(=O)c2ccc(S(C)(=O)=O)c(C(=O)OC)c2C)c1OC(=O)SCc1ccccc1 [compound 93] please.
95

Quote Growth inhibition rate (%) Barnyardgrass reported for CCSC(=O)Oc1c(C(=O)c2ccc(S(C)(=O)=O)c(OCC3CCCO3)c2C)cnn1C (centres unmarked) [compound 211] please.
70

Quote Growth inhibition rate (%) Barnyardgrass reported for CCCSC(=O)Oc1c(C(=O)c2ccc(S(C)(=O)=O)c(C(=O)OC)c2C)cnn1CC [compound 85] please.
98

Quote Growth inhibition rate (%) Barnyardgrass reported for CCSC(=O)Oc1c(C(=O)c2ccc(S(C)(=O)=O)c(OCCOC)c2Cl)cnn1C [compound 216] please.
100

Quote Growth inhibition rate (%) Barnyardgrass reported for CCC(C)SC(=O)Oc1c(C(=O)c2ccc(S(C)(=O)=O)c(C(=O)OC)c2C)cnn1C (centres unmarked) [compound 88] please.
98

Quote Growth inhibition rate (%) Barnyardgrass reported for CCSC(=O)Oc1c(C(=O)c2ccc(S(C)(=O)=O)c(OCC(F)(F)F)c2C)cnn1C [compound 79] please.
100

Quote Growth inhibition rate (%) Barnyardgrass reported for CCSC(=O)Oc1c(C(=O)c2ccc(S(C)(=O)=O)c(CCCOC)c2C)cnn1C [compound 226] please.
100

Quote Growth inhibition rate (%) Barnyardgrass reported for CCSC(=O)Oc1c(C(=O)c2ccc(S(C)(=O)=O)c(OCCSC)c2C)cnn1C [compound 81] please.
30

Quote Growth inhibition rate (%) Barnyardgrass reported for CCCOc1c(S(C)(=O)=O)ccc(C(=O)c2cnn(CC)c2OC(=O)SCC)c1C [compound 67] please.
95

Quote Growth inhibition rate (%) Barnyardgrass reported for CCCSC(=O)Oc1c(C(=O)c2ccc(S(C)(=O)=O)c(OCCOC)c2C)cnn1CC [compound 235] please.
100

Quote Growth inhibition rate (%) Barnyardgrass reported for COC(=O)c1c(S(C)(=O)=O)ccc(C(=O)c2cnn(C)c2OC(=O)SC)c1Cl [compound 29] please.
80

Quote Growth inhibition rate (%) Barnyardgrass reported for CCn1ncc(C(=O)c2ccc(S(C)(=O)=O)c(C(=O)OC)c2C)c1OC(=O)SC [compound 4] please.
95

Quote Growth inhibition rate (%) Barnyardgrass reported for CCSC(=O)Oc1c(C(=O)c2ccc(S(C)(=O)=O)c(Cl)c2C)cnn1CC [compound 71] please.
70

Quote Growth inhibition rate (%) Barnyardgrass reported for CCCSC(=O)Oc1c(C(=O)c2ccc(S(C)(=O)=O)c(OCCOC)c2C)cnn1C [compound 219] please.
100

Quote Growth inhibition rate (%) Barnyardgrass reported for CCn1ncc(C(=O)c2ccc(S(C)(=O)=O)c(C(=O)OC)c2C)c1OC(=O)SC(C)C [compound 87] please.
95

Quote Growth inhibition rate (%) Barnyardgrass reported for CCOCc1c(S(C)(=O)=O)ccc(C(=O)c2cnn(C)c2OC(=O)SCC)c1C [compound 73] please.
100

Quote Growth inhibition rate (%) Barnyardgrass reported for CCSC(=O)Oc1c(C(=O)c2ccc(S(C)(=O)=O)c(CC#N)c2C)cnn1C [compound 83] please.
100

Quote Growth inhibition rate (%) Barnyardgrass reported for CCSC(=O)Oc1c(C(=O)c2ccc(S(C)(=O)=O)c(C(=O)OC)c2Cl)cnn1CC [compound 95] please.
100

Quote Growth inhibition rate (%) Barnyardgrass reported for CCCCCCCc1c(S(C)(=O)=O)ccc(C(=O)c2cnn(C)c2OC(=O)SCC)c1C [compound 225] please.
30

Quote Growth inhibition rate (%) Barnyardgrass reported for CCSC(=O)Oc1c(C(=O)c2ccc(S(C)(=O)=O)c(OCCCOC)c2C)cnn1C [compound 218] please.
100

Quote Growth inhibition rate (%) Barnyardgrass reported for CCOc1c(S(C)(=O)=O)ccc(C(=O)c2cnn(C)c2OC(=O)SCC)c1C [compound 36] please.
100

Quote Growth inhibition rate (%) Barnyardgrass reported for CCOc1c(S(C)(=O)=O)ccc(C(=O)c2cnn(CC)c2OC(=O)SCC)c1C [compound 58] please.
95

Quote Growth inhibition rate (%) Barnyardgrass reported for CCSC(=O)Oc1c(C(=O)c2ccc(S(C)(=O)=O)c(C(=O)OC)c2Cl)cnn1C [compound 27] please.
100

Quote Growth inhibition rate (%) Barnyardgrass reported for COC(=O)c1c(S(C)(=O)=O)ccc(C(=O)c2cnn(C)c2OC(=O)SC(C)C)c1C [compound 86] please.
95

Quote Growth inhibition rate (%) Barnyardgrass reported for CCSC(=O)Oc1c(C(=O)c2ccc(S(C)(=O)=O)c(CS(C)(=O)=O)c2C)cnn1C [compound 72] please.
80

Quote Growth inhibition rate (%) Barnyardgrass reported for COC(=O)c1c(S(C)(=O)=O)ccc(C(=O)c2cnn(C)c2OC(=O)SCc2ccccc2)c1C [compound 92] please.
0

Quote Growth inhibition rate (%) Barnyardgrass reported for CCn1ncc(C(=O)c2ccc(S(C)(=O)=O)c(C(=O)OC)c2C)c1OC(=O)SC(C)(C)C [compound 91] please.
95

Quote Growth inhibition rate (%) Barnyardgrass reported for CCSC(=O)Oc1c(C(=O)c2ccc(S(C)(=O)=O)c(COC)c2Cl)cnn1C [compound 42] please.
100
